B1: FCHO1 (parent)
chain: FSDPSQSDPETKDFWLNMAALTEA

variants of: B1; assay: protein stability index of a GFP-peptide fusion (GPS, HEK-293T) (PSI 1-6); higher = more stable; conditions: c terminus: a fixed tail appended;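 note: lentivirally expressed fusions sorted by FACS into six bins by GFP to DsRed ratio, PSI derived from sequencing read proportions per bin multiplied by bin number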
Class MET: protein stability index at least 3. Class NOT MET: protein stability index below 3.

Solved cases (2 shown):
F14W | MET
K12N | MET

Textbook exercise: given the entry `A19S` , state whether its protein stability index is greater than or equal to 3.
NOT MET

Textbook exercise: given the entry `T11V` , state whether its protein stability index is greater than or equal to 3.
NOT MET
